# Tested on: CCRIS mutagenicity, Ames/micronucleus/aberration tests
# Measurement Notes: CCRIS mutagenicity studies
# Experimental Parameters: Test System: AMES SALMONELLA TYPHIMURIUM; Strain/Indicator: TA98; Metabolic Activation: HAMSTER, LIVER, S-9, AROCLOR 1254; Method: PREINCUBATION
Calls of active or inactive are those of the source. How the calls were made is not given here.
Assay Endpoint: mutagenic call

Take a look at these entries with their results.
Which value of mutagenic call has been reported for c1ccc(N2CCNCC2)cc1 in the records?
inactive; negative

Which value of mutagenic call has been reported for C[C@@H]1Cc2c(Cl)cc(C(=O)NC(Cc3ccccc3)C(=O)O)c(O)c2C(=O)O1 (some centres not stated) in the records?
inactive; negative

Which value of mutagenic call has been reported for Cn1c(N)nc2c3cccnc3ccc21 in the records?
active; positive

Which value of mutagenic call has been reported for CC(C)(C#N)N=NC(C)(C)C#N in the records?
inactive; negative

More entries:
Which value of mutagenic call has been reported for Nc1ccc(N)c2c1C(=O)c1c(N)ccc(N)c1C2=O in the records?
active; positive

Which value of mutagenic call has been reported for COc1ccc(OC)cc1 in the records?
inactive; negative

Which value of mutagenic call has been reported for CC(=O)NNC(=O)c1ccccn1 in the records?
inactive; negative

---

# Tested on: CCRIS mutagenicity, Ames/micronucleus/aberration tests
# Measurement Notes: CCRIS mutagenicity studies
# Experimental Parameters: Test System: AMES SALMONELLA TYPHIMURIUM; Strain/Indicator: TA100; Metabolic Activation: RAT, LIVER, S-9, PHENOBARBITAL; Method: PREINCUBATION
Active and inactive are the calls of the source. No rule for the calls is given here.
Output constraint: value belongs to label 1 = active, label 0 = inactive

Take a look at these entries with their results.
How did this test come out for COC1=CC(=O)C[C@@H](C)[C@]12Oc1c(Cl)c(OC)cc(OC)c1C2=O ?
label 0

How did this test come out for O=S(=O)(O)c1ccc(N=Nc2c(O)ccc3ccccc23)cc1 ?
label 0

How did this test come out for O=S1OCC2C(CO1)C1(Cl)C(Cl)=C(Cl)C2(Cl)C1(Cl)Cl (stereo not given) ?
label 0

How did this test come out for Oc1ccccc1O ?
label 0

How did this test come out for Oc1ccc(O)c(O)c1 ?
label 0

More entries:
How did this test come out for CCCCCC[C@@H](O)[C@@H]1C2=C(C[C@H]([C@H](O)[C@@H]3CC=CC(=O)O3)CC3=C(C(=O)OC3=O)[C@@H]1O)C(=O)OC2=O ?
label 0

How did this test come out for Oc1ccc(O)cc1 ?
label 1

How did this test come out for CC1CN(N=O)CC(C)O1 (stereo not given) ?
label 1

How did this test come out for C1=CC2OC2C=C1 (stereo not given) ?
label 1

How did this test come out for C[C@@H]1Cc2c(Cl)cc(C(=O)NC(Cc3ccccc3)C(=O)O)c(O)c2C(=O)O1 (stereo not given in full) ?
label 0

---

# System: CCRIS mutagenicity, Ames/micronucleus/aberration tests
# Measurement Notes: CCRIS mutagenicity studies
# Experimental Parameters: Test System: AMES SALMONELLA TYPHIMURIUM; Strain/Indicator: TA97A; Metabolic Activation: RAT, LIVER, S-9, AROCLOR 1254; Method: STANDARD PLATE
The source made the active and inactive calls. The rule behind the calls is not given here.
Output constraint: value belongs to TRUE = active, FALSE = inactive

How did this test come out for Cc1cccc(C)c1C ?
FALSE

More entries:
How did this test come out for CCCCOCC=O ?
FALSE

How did this test come out for COCC(=O)O ?
FALSE

How did this test come out for c1cc2cccc3c4cccc5cccc(c(c1)c23)c54 ?
TRUE

How did this test come out for Nc1cccc2cc3c(nc12)CCCC3 ?
TRUE

How did this test come out for O=S1OCC2C(CO1)C1(Cl)C(Cl)=C(Cl)C2(Cl)C1(Cl)Cl (configuration not stated) ?
FALSE

How did this test come out for CC1=CC=C(C(C)C)CC1 ?
FALSE

---

# Test system: CCRIS mutagenicity, Ames/micronucleus/aberration tests
# Measurement Notes: CCRIS mutagenicity studies
# Experimental Parameters: Test System: E. COLI; Strain/Indicator: WP2 UVRA; Metabolic Activation: NONE
Activity calls are given as the source filed them. How the calls were made is not given here.
Assay Endpoint: mutagenic call

Which value of mutagenic call has been reported for COc1cc(C(=O)OCCCN2CCCN(CCCOC(=O)c3cc(OC)c(OC)c(OC)c3)CC2)cc(OC)c1OC in the records?
inactive; negative

Which value of mutagenic call has been reported for CC(=O)Nc1ccc(CC(=O)O)cc1 in the records?
inactive; negative

Which value of mutagenic call has been reported for CCOP(=S)(OCC)SCCl in the records?
inactive; negative

Which value of mutagenic call has been reported for CO[C@@]1(NC(=O)CSC[C@@H](N)C(=O)O)C(=O)N2C(C(=O)O)=C(CSc3nnnn3C)CS[C@@H]21 in the records?
inactive; negative

---

# System: CCRIS mutagenicity, Ames/micronucleus/aberration tests
# Measurement Notes: CCRIS mutagenicity studies
# Experimental Parameters: Test System: Ames Salmonella typhimurium; Strain/Indicator: TA100; Metabolic Activation: Rat, Liver, S-9, Aroclor 1254; Method: Preincubation
Active and inactive are the calls of the source. No rule for the calls is given here.
Output constraint: value belongs to active, inactive

How did this test come out for CCCCCCN=[N+]=[N-] ?
active

How did this test come out for CCN(CC)c1ccc2nc3ccc(=[N+](CC)CC)cc-3oc2c1 ?
inactive

How did this test come out for O=NN1CN(N=O)CN(N=O)C1 ?
inactive

How did this test come out for Clc1cc2c(cc1Cl)Oc1cc(Cl)c(Cl)cc1O2 ?
inactive

More entries:
How did this test come out for CC(=O)/C=C/C1=C(C)CCCC1(C)C ?
inactive

How did this test come out for CCCCN=[N+]=[N-] ?
active

How did this test come out for CN(CCCl)c1ccc(/C=C/C2=[N+](C)c3ccccc3C2(C)C)cc1 ?
inactive

---

# Test system: CCRIS mutagenicity, Ames/micronucleus/aberration tests
# Measurement Notes: CCRIS mutagenicity studies
# Experimental Parameters: Test System: AMES SALMONELLA TYPHIMURIUM; Strain/Indicator: TA1537; Metabolic Activation: HAMSTER, LIVER, S-9, AROCLOR 1254 (10%); Method: PREINCUBATION
Calls of active or inactive are those of the source. The rule behind the calls is not given here.
Output constraint: value belongs to active, inactive

How did this test come out for CNc1ccc(O)cc1 ?
active

How did this test come out for O=C1[O][Bi][O]c2ccccc21 ?
inactive

How did this test come out for COc1ccc(C=O)cc1OC ?
inactive

How did this test come out for CC(N)Cc1ccccc1 (stereo not drawn) ?
inactive

How did this test come out for c1ccoc1 ?
inactive

---

# Tested on: CCRIS mutagenicity, Ames/micronucleus/aberration tests
# Measurement Notes: CCRIS mutagenicity studies
# Experimental Parameters: Test System: AMES SALMONELLA TYPHIMURIUM; Strain/Indicator: TA98; Metabolic Activation: S-9; Method: PREINCUBATION
Calls of active or inactive are those of the source. No rule for the calls is given here.
Output constraint: value belongs to y = active, n = inactive

How did this test come out for COC(=O)C1=C(C)NC(C)=C(C(=O)OCC(C)=O)C1c1ccccc1[N+](=O)[O-] (configuration not stated) ?
n

More entries:
How did this test come out for C[C@]1(Cn2ccnn2)[C@H](C(=O)O)N2C(=O)C[C@H]2S1(=O)=O ?
n

How did this test come out for COc1cc(S(=O)(=O)O)c(C)cc1N=Nc1c(O)ccc2cc(S(=O)(=O)O)ccc12 ?
n

How did this test come out for O=[N+]([O-])c1ccc2c(c1)C(O)c1ccccc1-2 (configuration not stated) ?
y

How did this test come out for CCN(CC)CCCN(c1ccccc1)C1Cc2ccccc2C1 ?
n

How did this test come out for CN(Cc1cnc2nc(N)nc(N)c2n1)c1ccc(C(=O)N[C@@H](CCC(=O)O)C(=O)O)cc1 ?
n

How did this test come out for O=c1[nH]cc(F)c(=O)[nH]1 ?
n

How did this test come out for Cc1cnc2cc(CO)c3c(nc(N)n3C)c2n1 ?
y

How did this test come out for CCc1ccccc1N ?
n

---

# System: CCRIS mutagenicity, Ames/micronucleus/aberration tests
# Measurement Notes: CCRIS mutagenicity studies
# Experimental Parameters: Test System: AMES SALMONELLA TYPHIMURIUM; Strain/Indicator: TA1978; Metabolic Activation: NONE; Method: STANDARD PLATE
Active and inactive are the calls of the source. No rule for the calls is given here.
Output constraint: value belongs to yes (1) = active, no (0) = inactive

How did this test come out for O=C1c2cccc(O)c2C(=O)c2cccc(O)c21 ?
no (0)

More entries:
How did this test come out for Cl/C=C\CCl ?
yes (1)

How did this test come out for Cc1ccc(NCCCl)cc1 ?
no (0)

How did this test come out for Nc1ccc(N)c2c1C(=O)c1cccc([N+](=O)[O-])c1C2=O ?
no (0)
